Source of measurements: PubChem BioAssay (NCATS)

Target under test: Thyrotropin-releasing hormone receptor (Homo sapiens)
Assay remarks: qHTS for Small Molecule Agonists and Allosteric Enhancers of Human TRH Receptor: Validation Screen for Agonists (AID 493127);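 further: intracellular calcium rise by fluo-8 fluorescence before TRH EC20 addition; 0% is about no effect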
Experimental setup: TRH receptor agonist cell assay; at 2 µM; active compounds read high
Recorded measurements of activation, one per entry
Property name: activation (%)

>>> print(df.to_string())
                                   compound                         target_under_test  property_name  unit_annotation  numeric_readout
0  O=c1[nH]c2cc(C(F)(F)F)ccc2n1-c1cc(C(F)(F)F)ccc1O  Thyrotropin-releasing hormone receptor (Homo sapiens)     activation                %             1.88
1           CCN1/C(=C/C(C)=O)Sc2ccc(OC)cc21  Thyrotropin-releasing hormone receptor (Homo sapiens)     activation                %            -4.31
2  Oc1ccc(C2CNCc3sccc32)cc1O (stereo unspecified)  Thyrotropin-releasing hormone receptor (Homo sapiens)     activation                %             1.75
3  N#C/C(=C\c1ccc(O)c(O)c1)C(=O)NCCCc1ccccc1  Thyrotropin-releasing hormone receptor (Homo sapiens)     activation                %            0.625
4         Oc1cc(O)cc(/C=C/c2ccc(O)c(O)c2)c1  Thyrotropin-releasing hormone receptor (Homo sapiens)     activation                %            0.938
5  CCCCCCCCCCCCCCCCCC(=O)OC(CC(=O)O)C[N+](C)(C)C (stereo unspecified)  Thyrotropin-releasing hormone receptor (Homo sapiens)     activation                %             -0.5
